Where do these numbers come from? They come from patent US20240239790A1.

half-life: recorded values
# test.summary: Pharmacokinetic study in mice (IV and PO), plasma
# Format: in vivo, mouse
# assay.context: female, C57BL/6; mouse plasma, PO, 10 mg/kg
Quick reminder: number only, in h, skip the unit.

These solved cases illustrate the format of a correct answer.
>  <compound.smiles>
O=C(COc1cnc(N[C@H]2CC[C@@H](Oc3nc(N4CCOCC4)cc4ncccc34)CC2)nc1)N1CCC1

>  <display.unit>
h

>  <half-life>
2.17

$$$$
>  <compound.smiles>
CN(C)C(=O)Cn1ccc2nc(N[C@H]3CC[C@@H](Oc4nc(N5CCOCC5)cc5ncccc45)CC3)ncc21

>  <display.unit>
h

>  <half-life>
2.92

$$$$
>  <compound.smiles>
O=C(COc1cnc(N[C@H]2CC[C@@H](Oc3nc(N4CCOCC4)cc4ncccc34)CC2)nc1)N1CCOCC1

>  <display.unit>
h

>  <half-life>
2.05

$$$$
>  <compound.smiles>
CN1CCN(CCOc2cnc(N[C@H]3CC[C@@H](Oc4nc(N5CCOCC5)cc5ncccc45)CC3)nc2)CC1

>  <display.unit>
h

>  <half-life>
5.4

$$$$

We now examine a further compound.
The recorded half-life for entry `CN(C)C(=O)Cn1c(=O)n(C2CCOCC2)c2nc(N[C@H]3CC[C@@H](Oc4nc(N5CCOCC5)cc5ncccc45)CC3)ncc21` equals 2.07
